Ref: the supplement of paper PMC9170038

- System: MS2 coat protein
- Experimental details: apparent KD of MS2 coat protein; designed switch direction (-1 OFF switch, 1 ON switch): -1; higher = weaker reporter binding
- Conditions used: Eterna round: R95; input ligand: microRNA oligo, concentration not stated
Would you mind classing the entries by apparent KD of MS2 coat protein? Ranges: lower bin (below 30 nM), middle bin (30 nM to below 100 nM), upper bin (100 nM or more)

| Polymer sequence | Category |
| --- | --- |
| UAUAAGCUAGGAUAUCGCUGAGUAAACAUGAGGAUCACCCAUGUGGACCAUGAUUGCCACCGAGAAGGAGCGGGAA [Aonat] (puzzle: Exclusion 5) | middle bin |
| AUAAUUUAAGUCAGGAUAUACCUAUGGAAACAUAGGUAGAAGGGACAUGAGGAUCACCCAUGUUUAUAUACAUA [Fiskers BMX 4 - 4] (puzzle: Brourd's mod of Exclusion 4) | lower bin |
| ACCUCACAUGAGGAUCACCCAUGUCAGGAUAUGUACCCGAUCAAGUCAGAGAUUGGGAGCAGAAGGGACUGCGG [Leesla] (puzzle: Exclusion 1) | upper bin |
| AGUAACUAUCACGAAAGUGAUAGUUACAACAAGUGAUAAACAUGAGGAUCACCCAUGUCCUCAUUUGCUCGUUUUAU [Sensor 3 - 15] (puzzle: Sensor v3, turn-off variant 2) | upper bin |
| ACAAGCUUUUUGCUCGGGUACAUGAGGAUCACCCAUGUUUGGGUUUAUUGAGGUUGUGUGGGCGUGCGCUGCAGGUU [JR_SV3TOV1_Sub075] (puzzle: Sensor v3, turn-off variant 1) | upper bin |
| UUCUUGGCAGGAUAUGCUCUUUUAGACAUGAGGAUCACCCAUGUGUUUAUUCUUUUUUUUGCAGAAGGGCCUUAAU [JR_E5_Sub044] (puzzle: Exclusion 5) | middle bin |
| AGUAACCGUCACGAAAGUGAUGGUUACGCAAGCAAUUGUACAUGAGGAUCACCCAUGUCCUCAUUUGCUCGUCUUAU [Sensor 3 - 42] (puzzle: Sensor v3, turn-off variant 2) | upper bin |
| CUUUUGUGAGGAUAUCAGUAGUAGAACAAUAGUACUACUACUGAGAAGGCACAUGAGGAUCACCCAUGUUCUUC [Fiskers Ex 4 Super stable 44 mod 5] (puzzle: Exclusion 4) | lower bin |
| AUGGACGCAGGAUAUACAUGAGGAUCACCCAUGUUAGGGUUGUGAGUAGGAAGGGAAGGUAGAAGGGCGAGAGU [JR_Exclu3_Sub099] (puzzle: Exclusion 3) | middle bin |
| AAACACUUAGGAUAUACAUGAGGAUCACCCAUGUCAGACAACGACUACACAAAGUCAUGUAGAAGGAAGUCAAG [Islarele] (puzzle: Exclusion 3) | lower bin |
